Numbers sourced from PubChem BioAssay (NCATS).

- assay_notes: Viability qHTS for spleen associated tyrosine kinase inhibitor (SYKi) naive MV4-11 cells (AID 1963823); note: nearly all actives have a fitted effect of over 40% in size
- measurement_setup: MV4-11 AML viability, CellTiter-Glo luminescence, 72 h; series mostly up to 45 µM
Results filed as inconclusive are left out. The source made the active and inactive calls. Calls come from the whole dose curve; as a rule, active = well fitted cell-killing curve with a large enough effect; inconclusive = small, poorly fitted or top-dose-only effect, or effect the other way; inactive = no such curve, though single readings can be large or run the other way.
Catalogue of viability (% of control) readings, one per entry.

compound	viability (% of control)
CC1=CC[C@]2(C(=O)O[C@@H]3O[C@H](CO[C@@H]4O[C@H](CO)[C@@H](O[C@@H]5O[C@@H](C)[C@H](O)[C@@H](O)[C@H]5O)[C@H](O)[C@H]4O)[C@@H](O)[C@H](O)[C@H]3O)CC[C@]3(C)C(CCC4[C@@]5(C)C[C@@H](O)[C@H](O)[C@@](C)(CO)C5CC[C@]43C)C2C1C (stereo partly drawn)	78.2% [at 9.25 µM] (inactive)
C[C@@H]1O[C@@H](O[C@H]2[C@H](O[C@H]3[C@H](O[C@H]4CC[C@@]5(C)C(CC[C@]6(C)C5CC=C5[C@@H]7CC(C)(C)C[C@@H](O)[C@]7(C)CC[C@]56C)[C@@]4(C)CO)O[C@H](C(=O)O)[C@@H](O)[C@@H]3O)OC[C@H](O)[C@@H]2O)[C@H](O)[C@H](O)[C@H]1O (stereo partly drawn)	76.2% [at 9.25 µM] (inactive)

Challenge: Field request: viability (% of control) | item: C[C@@H]1O[C@@H](O[C@@H]2[C@@H](O)[C@@H](O[C@]3(CO)O[C@H](CO)[C@@H](O)[C@@H]3OC(=O)/C=C/c3ccc(O)cc3)O[C@H](CO)[C@H]2OC(=O)/C=C/c2ccc(O)cc2)[C@H](O)[C@H](O)[C@H]1O[C@@H]1O[C@@H](C)[C@H](O[C@@H]2OC[C@](O)(CO)[C@H]2O)[C@@H](O)[C@H]1O
Response given: 90% [at 9.25 µM] (inactive)

----------
- assay_notes: Quantitative highthroughput screen to assess conditional lethalithy of P12 Ichikawa cells grown in Human Plasma-Like Medium with dialyzed fetal bovine serum (HPLM+ds) (AID 1963879); note: nearly all actives have a fitted effect of over 35% in size
- measurement_setup: ATP luminescence, 48 h; viability; series mostly up to 45.8 µM
Inconclusive results are not listed. Active and inactive are the calls of the source. Calls come from the whole dose curve; as a rule, active = well fitted cell-killing curve with a large enough effect; inconclusive = small, poorly fitted or top-dose-only effect; inactive = flat fitted curve, though single readings scatter.
Tick one outcome: active, inactive

compound	assigned_category
O=C(Nc1ccc(OC(F)(F)F)cc1)c1sccc1NCc1ccnc2ccccc12	active
O=C(NCCCCN1CCOCC1)c1cc2ccccc2o1	inactive
C=CC(=O)Nc1cc(NC(=O)c2ccc(C)c(NC(=O)c3ccno3)c2)cc(C(F)(F)F)c1	inactive
O=C(Nc1ccc(F)c(C(F)(F)F)c1)Nc1nnc(-c2ccncc2)s1	inactive
CCCCCCCCCCCCCCCCCCCCCCO	inactive

Challenge: Which outcome was assigned to COc1cc(OC)c(C(=O)CCCN2CCCC2)c(OC)c1 in this test?
Response given: inactive

----------
- assay_notes: Viability qHTS for spleen associated tyrosine kinase inhibitor (SYKi) naive MV4-11 cells (AID 1963823); note: nearly all actives have a fitted effect of over 40% in size; note: potency is the fitted concentration of half-maximal effect
- measurement_setup: MV4-11 AML viability, CellTiter-Glo luminescence, 72 h; series mostly up to 45 µM
- Method: Department of Medicine, Hematology/Oncology University Hospital Frankfurt, Germany. Trials have shown promising clinical activity of the selective SYK inhibitor entospletinib in patients with high expressing HOXA9/MEIS1 acute leukemias. […] 7; Detection; Luminescence; ViewLux plate reader (PerkinElmer). […] 1. Quantitative high-throughput screening (qHTS) of small molecule compounds was conducted on naive SYKi MV4-11 cell line. […] 7. Luminescence was measured on a ViewLux plate reader (PerkinElmer).
Inconclusive results are not listed. The source made the active and inactive calls. Calls come from the whole dose curve; as a rule, active = well fitted cell-killing curve with a large enough effect; inconclusive = small, poorly fitted or top-dose-only effect, or effect the other way; inactive = no such curve, though single readings can be large or run the other way.
measured_attribute: Potency

Sample records with Potency:
compound	Potency
Cc1ccc(-n2nc(C(C)(C)C)cc2NC(=O)Nc2ccc(OCCN3CCOCC3)c3ccccc23)cc1	8200 nM (active)
C=C1CC2[C@@]3(C)C=CC(=O)C(C)(C)C3=C(O)C(=O)[C@@]2(C)C2(C(=O)OC)C(=O)C(C)OC(=O)[C@@]12C (stereo partly drawn)	10000 nM (active)
Cc1cc(O)c(-c2ccc([C@@H](C)CN(C)C)cc2)c2c1[nH]c(=O)c1sccc12	18.4 nM (active)
COc1ccc(C(=O)OC2C3C=COC(OC4OC(CO)C(O)C(O)C4O)C3C3(CO)OC23)cc1OC (stereo not drawn)	inactive
C[C@@H]1C(=O)O[C@H]2CC34[C@H]5C[C@@H](C(C)(C)C)C36[C@@H](OC(=O)[C@@H]6O)O[C@@]4(C(=O)O5)[C@]21O (stereo partly drawn)	inactive
Cc1nc2ccc(-n3ncc(C(=O)c4cc5ccccc5[nH]4)c3N)cc2[nH]1	2590 nM (active)

We now examine a further compound.
Challenge: Field request: Potency | item: NC[C@H]1O[C@H](O[C@H]2[C@H](O)[C@@H](O[C@H]3O[C@H](CO)[C@@H](O)[C@H](N)[C@H]3O)[C@H](N)C[C@@H]2N)[C@H](N)[C@@H](O)[C@@H]1O
Response given: inactive

----------
- assay_notes: Viability qHTS for spleen associated tyrosine kinase inhibitor (SYKi) drug resistant MV4-11 cells (AID 1963824); note: nearly all actives have a fitted effect of over 35% in size
- measurement_setup: SYKi-resistant MV4-11 viability, CellTiter-Glo, 72 h; series mostly up to 45 µM
Records with an inconclusive call do not appear. The source made the active and inactive calls. The call rests on the fitted dose curve; in most records, active means well fitted cell-killing curve with a large enough effect; inconclusive means small, poorly fitted or top-dose-only effect, or effect the other way; inactive means no such curve, though single readings can be large or run the other way.
Tick one outcome: active, inactive

Consider the worked cases shown below.
compound	assigned_category
Clc1cc(Cl)cc(CNc2ncncc2-c2ccc3c(c2)OCO3)c1	active
CC1=CC2=C(C)C(=O)[C@](C)(O)[C@H](O)C2=CO1	inactive
Cn1cc(-c2cnc3ccc4ccc(CS(=O)(=O)NCc5ccccn5)cc4c(=O)c3c2)cn1	active
CCNC(=O)Nc1ccc(-c2nc3c(c(N4CCOC[C@@H]4C)n2)CCN(C2COC2)C3)cc1	active

Please look at the following compound next.
Challenge: Which outcome was assigned to COc1cc(C2CC(=O)Nc3c2cc(Br)c2ccccc32)cc(OC)c1OC (stereo unspecified) in this test?
Response given: inactive

----------
- assay_notes: Viability qHTS for spleen associated tyrosine kinase inhibitor (SYKi) naive MV4-11 cells (AID 1963823); note: nearly all actives have a fitted effect of over 40% in size; note: potency is the fitted concentration of half-maximal effect
- measurement_setup: MV4-11 AML viability, CellTiter-Glo luminescence, 72 h; series mostly up to 45 µM
Results filed as inconclusive are left out. Calls of active or inactive are those of the source. Calls come from the whole dose curve; as a rule, active = well fitted cell-killing curve with a large enough effect; inconclusive = small, poorly fitted or top-dose-only effect, or effect the other way; inactive = no such curve, though single readings can be large or run the other way.
measured_attribute: Potency

compound	Potency
Clc1ccccc1C(c1ccccc1)(c1ccccc1)n1ccnc1	5250 nM (active)
N[C@@H]1CN(c2c(F)cc3c(=O)c(C(=O)O)cn([C@@H]4C[C@@H]4F)c3c2Cl)CC12CC2	inactive
CCCCC(O)/C=C(C)/C=C/C=C/C(=O)N1CCCC1=O (stereo not given)	inactive
CCN(CC)C(=O)/C(C#N)=C/c1cc(O)c(O)c([N+](=O)[O-])c1	inactive
CN(C)c1nc(Cc2ccc(NC(=O)c3ccc4ccccc4c3)cc2)nc(Cl)c1CC(=O)O	inactive
CC1=C(C(=O)OC2OC(COC3OC(CO)C(O)C(O)C3O)C(O)C(O)C2O)C(C)(C)CCC1 (stereo not given)	inactive

Challenge: Field request: Potency | item: O=C(O)CCc1cccc(O[C@@H]2O[C@H](CO)[C@@H](O)[C@H](O)[C@H]2O)c1O
Response given: inactive

Challenge: Field request: Potency | item: CCOC(=O)c1cnn(-c2ccc(NC(=O)C(Cl)=C(Cl)Cl)cc2)c1C(F)(F)F
Response given: 580 nM (active)

Challenge: Field request: Potency | item: N[C@@H](CC(=O)Nc1ccc(Oc2cc(F)c(F)cc2Br)cc1)C(=O)O
Response given: inactive

Challenge: Field request: Potency | item: CCc1cccc(CC)c1NC(=O)CN(CC(=O)O)CC(=O)O
Response given: inactive

----------
- assay_notes: Cellular viability qHTS for adrenocortical cancer (ACC) cell line NCI-H295R (AID 1963990); note: nearly all actives have a fitted effect of over 60% in size
- measurement_setup: CellTiter-Glo ATP luminescence, 48 h; series mostly up to 46.1 µM
- Description: PI: Naris Nilubol, MD Surgical Oncology Program, National Cancer Institute (NCI) National Institute of Health (NIH), Bethesda, Maryland Adrenocortical cancer (ACC) is a rare malignancy with poor survival outcomes and few treatment options. Currently, mitotane is the only FDA-approved therapy for ACC. […] Through a quantitative high-throughput drug screen (qHTS), we identified auranofin (AF), a thioredoxin reductase (TXNRD) inhibitor, as a promising candidate drug. […]
Inconclusive results are not listed. The source made the active and inactive calls. The call rests on the fitted dose curve; in most records, active means well fitted cell-killing curve with a large enough effect; inconclusive means small, poorly fitted or top-dose-only effect; inactive means flat fitted curve, though single readings scatter.
Tick one outcome: 1 (yes) (active), 0 (no) (inactive)

Consider the worked cases shown below.
compound	assigned_category
O=C(O)c1ccccc1OP(=O)(O)O	0 (no)
O=C(Nc1cccc(C(F)(F)F)c1)Nc1cc(S(=O)(=O)NC2CC2)ccc1-c1ccsc1	1 (yes)
CN1C(=O)C[C@H](C(=O)N[C@@H](Cc2cnc[nH]2)C(=O)N2CCC[C@@H]2C(N)=O)NC1=O	0 (no)
Cc1ccc(-c2nn(C(C)(C)CNC(=O)c3ccncc3)c3ncnc(N)c23)cc1	1 (yes)
C[C@@H]1O[C@@H](O[C@@H]2\C=C/C=C\C=C/C=C\C[C@H](C)OC(=O)/C=C\[C@H]3O[C@@H]3C[C@H](O)C[C@]3(O)C[C@@H](O)[C@@H](C(=O)O)[C@H](C2)O3)[C@H](O)[C@H](N)[C@@H]1O	0 (no)
C[C@H](NC(=O)CCC(F)(F)F)C(=O)N[C@@H]1C(=O)N(CCO)c2ncccc2-c2ccccc21	0 (no)

Challenge: Which outcome was assigned to CCN[C@H]1C[C@H](C)S(=O)(=O)c2sc(S(N)(=O)=O)cc21 in this test?
Response given: 0 (no)
